Experiment: Toxicity in human MIAPaCa2 cells xenografted in Swiss mouse assessed as maximum tolerated dosed intraperitoneally three times per week
Format: organism-based, MIA PaCa-2
Details: in vivo, ip
readout: MTD (mg/kg)

[
  {
    "entry smiles": "CN1CCN(CCCNc2cc3c4c(c(NCCCN5CCN(C)CC5)cc5c4c2C(=O)N(CCCN2CCN(C)CC2)C5=O)C(=O)N(CCCN2CCN(C)CC2)C3=O)CC1",
    "display unit": "mg/kg",
    "quantitative result": 15
  }
]
